target: hTRPV1 (Homo sapiens, UniProt Q8NER1); test: FLIPR inhibition of TRPV1 activation by capsaicin; assay type: cell-based; settings: Ki(CAP) relative to parent 8
Sequence (Q8NER1 whole entry): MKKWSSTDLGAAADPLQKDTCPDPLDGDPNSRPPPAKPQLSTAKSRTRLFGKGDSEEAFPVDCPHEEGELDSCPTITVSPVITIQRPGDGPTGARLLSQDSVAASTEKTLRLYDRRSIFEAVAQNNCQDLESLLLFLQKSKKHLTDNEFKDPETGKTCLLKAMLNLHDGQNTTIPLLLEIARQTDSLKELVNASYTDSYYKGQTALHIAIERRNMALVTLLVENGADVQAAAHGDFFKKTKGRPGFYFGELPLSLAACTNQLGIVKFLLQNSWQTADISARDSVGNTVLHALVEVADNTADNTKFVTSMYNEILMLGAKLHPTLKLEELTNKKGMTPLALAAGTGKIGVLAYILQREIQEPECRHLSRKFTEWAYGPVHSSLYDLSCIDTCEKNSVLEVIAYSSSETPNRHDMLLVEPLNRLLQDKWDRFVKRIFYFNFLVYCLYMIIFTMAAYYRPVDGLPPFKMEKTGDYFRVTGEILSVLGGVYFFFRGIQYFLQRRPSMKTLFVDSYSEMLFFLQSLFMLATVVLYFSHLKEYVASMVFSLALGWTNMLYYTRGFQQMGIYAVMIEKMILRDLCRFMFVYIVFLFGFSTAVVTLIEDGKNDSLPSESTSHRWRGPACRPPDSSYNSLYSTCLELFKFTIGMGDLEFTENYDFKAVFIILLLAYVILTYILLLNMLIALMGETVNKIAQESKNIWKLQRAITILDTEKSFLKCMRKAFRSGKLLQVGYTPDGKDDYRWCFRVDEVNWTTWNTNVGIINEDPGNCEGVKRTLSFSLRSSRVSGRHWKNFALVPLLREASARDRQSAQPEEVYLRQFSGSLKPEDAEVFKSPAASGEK
measurement.label: fold increase in potency compared to 8

Provide the documented fold increase in potency compared to 8 with hTRPV1 (Homo sapiens, UniProt Q8NER1) as the system for CC(C(=O)NCc1ccc(C(F)(F)F)nc1-c1ccc(F)cc1)c1ccc(NS(C)(=O)=O)c(F)c1 (stereo not drawn)
16 fold

# iterate: CC(C(=O)NCc1ccc(C(F)(F)F)nc1-c1ccc(Cl)cc1)c1ccc(NS(C)(=O)=O)c(F)c1 (stereo not drawn)
9 fold

# iterate: CC(C(=O)NCc1ccc(C(F)(F)F)nc1-c1ccc(C(C)(C)C)cc1)c1ccc(NS(C)(=O)=O)c(F)c1 (stereo not drawn)
13 fold

# iterate: CC(C(=O)NCc1ccc(C(F)(F)F)nc1-c1cccc(F)c1)c1ccc(NS(C)(=O)=O)c(F)c1 (stereo not drawn)
5 fold

# iterate: COc1ccc(-c2nc(C(F)(F)F)ccc2CNC(=O)C(C)c2ccc(NS(C)(=O)=O)c(F)c2)cc1 (stereo not drawn)
6 fold

# iterate: CC(C(=O)NCc1ccc(C(F)(F)F)nc1-c1cccc(Cl)c1)c1ccc(NS(C)(=O)=O)c(F)c1 (stereo not drawn)
13 fold

# iterate: CC(C(=O)NCc1ccc(C(F)(F)F)nc1-c1ccc(N(C)C)cc1)c1ccc(NS(C)(=O)=O)c(F)c1 (stereo not drawn)
2 fold
